# Test system: C3A (Hepatocellular Carcinoma)
# Experimental Details: combination Emax (second highest fraction inhibited in the dose matrix, 72 h); higher = more inhibition; extreme values may be limits of the assay

{"columns": ["Molecule", "combination Emax"],
 "data": [
  ["NC1(C(=O)N[C@@H](CCO)c2ccc(Cl)cc2)CCN(c2ncnc3[nH]ccc23)CC1 [Capivasertib] + C[C@@H]1COCCN1C2=NC(=NC(=C2)C3(CC3)[S@](=N)(=O)C)C4=C5C=CNC5=NC=C4 [AZD6738] (first compound max 10 µM, 7x7, partner max 10 µM)", 0.551],
  ["Cc1cc2ncnn2cc1Nc1ncc2c(n1)n(C1CCOCC1)c(=O)n2C [AZD7648] + O=C(c1cc(Cc2n[nH]c(=O)c3ccccc23)ccc1F)N1CCN(C(=O)C2CC2)CC1 [Olaparib] (first compound max 10 µM, 7x7, partner max 10 µM)", 0.232],
  ["COc1cccc(OCCCN)c1-c1cc(Nc2cnc(C#N)cn2)n[nH]1 [Prexasertib] + C[C@@H]1COCCN1C2=NC(=NC(=C2)C3(CC3)[S@](=N)(=O)C)C4=C5C=CNC5=NC=C4 [AZD6738] (first compound max 1 µM, 7x7, partner max 10 µM)", 0.528],
  ["CN(C)CCCOc1ccc(-c2ccc3ncc4c(c3c2)n(C2CCOCC2)c(=O)n4C)cn1 [AZD0156] + C=CCn1c(=O)c2cnc(Nc3ccc(N4CCN(C)CC4)cc3)nc2n1-c1cccc(C(C)(C)O)n1 [AZD1775] (first compound max 1 µM, partner max 1 µM)", 0.524],
  ["Cc1c2c(nn1C)CSCc1cc(n(C)n1)CSc1cc(c3ccccc3c1)OCCCc1c(C(=O)O)n(C)c3c-2c(Cl)ccc13 [AZD5991] + CCN(CCO)CCCOc1ccc2c(Nc3cc(CC(=O)Nc4cccc(F)c4)[nH]n3)ncnc2c1 [AZD2811] (first compound max 1 µM, 7x7, partner max 1 µM)", 0.32],
  ["Cc1cc2ncnn2cc1Nc1ncc2c(n1)n(C1CCOCC1)c(=O)n2C [AZD7648] + CCN(CCO)CCCOc1ccc2c(Nc3cc(CC(=O)Nc4cccc(F)c4)[nH]n3)ncnc2c1 [AZD2811] (first compound max 10 µM, 7x7, partner max 1 µM)", 0.269],
  ["CCN(CCO)CCCOc1ccc2c(Nc3cc(CC(=O)Nc4cccc(F)c4)[nH]n3)ncnc2c1 [AZD2811] + C=CCn1c(=O)c2cnc(Nc3ccc(N4CCN(C)CC4)cc3)nc2n1-c1cccc(C(C)(C)O)n1 [AZD1775] (first compound max 1 µM, partner max 1 µM)", 0.421],
  ["CCc1c2c(nc3ccc(O)cc13)-c1cc3c(c(=O)n1C2)COC(=O)[C@]3(O)CC [SN-38] + O=C(c1cc(Cc2n[nH]c(=O)c3ccccc23)ccc1F)N1CCN(C(=O)C2CC2)CC1 [Olaparib] (first compound max 0.3 µM, 7x7, partner max 10 µM)", 0.665],
  ["CC1(C)CCC(CN2CCN(c3ccc(C(=O)NS(=O)(=O)c4ccc(NCC5CCOCC5)c([N+](=O)[O-])c4)c(Oc4cnc5[nH]ccc5c4)c3)CC2)=C(c2ccc(Cl)cc2)C1 [Venetoclax] + C[C@@H]1COCCN1C2=NC(=NC(=C2)C3(CC3)[S@](=N)(=O)C)C4=C5C=CNC5=NC=C4 [AZD6738] (first compound max 1 µM, 7x7, partner max 10 µM)", 0.452]
]}

###

# Tested on: 697 (B-Lymphoblastic Leukemia);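 note: after 72 h of two-drug dosing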
# Experimental Details: Bliss excess, mean over the matrix (fraction); higher = more synergy
Each entry below carries its recorded Bliss excess.
Attribute Measured: Bliss excess

{"columns": ["Compound", "Attribute Measured", "Numeric Value"],
 "data": [
  ["Cc1c2c(nn1C)CSCc1cc(n(C)n1)CSc1cc(c3ccccc3c1)OCCCc1c(C(=O)O)n(C)c3c-2c(Cl)ccc13 [AZD5991] + CCN(CCO)CCCOc1ccc2c(Nc3cc(CC(=O)Nc4cccc(F)c4)[nH]n3)ncnc2c1 [AZD2811] (first compound max 1 µM, 7x7, partner max 1 µM)", "Bliss excess", -0.0039],
  ["NC1(C(=O)N[C@@H](CCO)c2ccc(Cl)cc2)CCN(c2ncnc3[nH]ccc23)CC1 [Capivasertib] + CC(C)n1c(=O)n(C)c2cnc3cc(F)c(-c4ccc(OCCCN5CCCCC5)nc4)cc3c21 [AZD1390] (first compound max 10 µM, 7x7, partner max 0.3 µM)", "Bliss excess", -0.0197],
  ["CC1(C)CCC(CN2CCN(c3ccc(C(=O)NS(=O)(=O)c4ccc(NCC5CCOCC5)c([N+](=O)[O-])c4)c(Oc4cnc5[nH]ccc5c4)c3)CC2)=C(c2ccc(Cl)cc2)C1 [Venetoclax] + C1CN(CCC1(C(=O)N[C@@H](CCO)C2=CC=C(C=C2)Cl)N)C3=NC=NC4=C3C=CN4 [Capivasertib] (first compound max 1 µM, 7x7, partner max 3 µM)", "Bliss excess", -0.0154]
]}

###

# Tested on: MDA-MB-157 (Breast Carcinoma)
# Experimental Details: combination Emax (second highest fraction inhibited in the dose matrix, 72 h); higher = more inhibition; extreme values may be limits of the assay

{"columns": ["Molecule", "combination Emax"],
 "data": [
  ["Cc1cc2ncnn2cc1Nc1ncc2c(n1)n(C1CCOCC1)c(=O)n2C [AZD7648] + CCN(CCO)CCCOc1ccc2c(Nc3cc(CC(=O)Nc4cccc(F)c4)[nH]n3)ncnc2c1 [AZD2811] (first compound max 10 µM, 7x7, partner max 1 µM)", 0.234],
  ["Cc1c2c(nn1C)CSCc1cc(n(C)n1)CSc1cc(c3ccccc3c1)OCCCc1c(C(=O)O)n(C)c3c-2c(Cl)ccc13 [AZD5991] + CN(C)CCCOc1ccc(-c2ccc3ncc4c(c3c2)n(C2CCOCC2)c(=O)n4C)cn1 [AZD0156] (first compound max 1 µM, 7x7, partner max 1 µM)", 0.69]
]}

###

# Tested on: KATOIII (Gastric Carcinoma)
# Experimental Details: combination Emax (second highest fraction inhibited in the dose matrix, 72 h); higher = more inhibition; extreme values may be limits of the assay
Each entry below carries its recorded combination Emax.

{"columns": ["Compound", "combination Emax"],
 "data": [
  ["COc1cccc(OCCCN)c1-c1cc(Nc2cnc(C#N)cn2)n[nH]1 [Prexasertib] + Cc1cc2ncnn2cc1Nc1ncc2c(n1)n(C1CCOCC1)c(=O)n2C [AZD7648] (first compound max 1 µM, 7x7, partner max 10 µM)", 0.526],
  ["Cc1c2c(nn1C)CSCc1cc(n(C)n1)CSc1cc(c3ccccc3c1)OCCCc1c(C(=O)O)n(C)c3c-2c(Cl)ccc13 [AZD5991] + CS(=O)(=O)CCNCc1ccc(-c2ccc3ncnc(Nc4ccc(OCc5cccc(F)c5)c(Cl)c4)c3c2)o1 [Lapatinib] (first compound max 1 µM, 7x7, partner max 10 µM)", 0.415],
  ["CC(=O)c1c(C)c2cnc(Nc3ccc(N4CCNCC4)cn3)nc2n(C2CCCC2)c1=O [Palbociclib] + Cn1cnc2c(F)c(Nc3ccc(Br)cc3Cl)c(C(=O)NOCCO)cc21 [Selumetinib] (first compound max 10 µM, 7x7, partner max 10 µM)", 0.465],
  ["C=CCn1c(=O)c2cnc(Nc3ccc(N4CCN(C)CC4)cc3)nc2n1-c1cccc(C(C)(C)O)n1 [AZD1775] + O=C(c1cc(Cc2n[nH]c(=O)c3ccccc23)ccc1F)N1CCN(C(=O)C2CC2)CC1 [Olaparib] (first compound max 1 µM, partner max 10 µM)", 0.198],
  ["CN(C)CCCOc1ccc(-c2ccc3ncc4c(c3c2)n(C2CCOCC2)c(=O)n4C)cn1 [AZD0156] + O=C(c1cc(Cc2n[nH]c(=O)c3ccccc23)ccc1F)N1CCN(C(=O)C2CC2)CC1 [Olaparib] (first compound max 3 µM, partner max 3 µM)", 0.195],
  ["CCN(CCO)CCCOc1ccc2c(Nc3cc(CC(=O)Nc4cccc(F)c4)[nH]n3)ncnc2c1 [AZD2811] + C=CCn1c(=O)c2cnc(Nc3ccc(N4CCN(C)CC4)cc3)nc2n1-c1cccc(C(C)(C)O)n1 [AZD1775] (first compound max 1 µM, partner max 1 µM)", 0.221]
]}

###

Each entry below carries its recorded combination Emax.
# System: NCI-H2369 (Mesothelioma)
# Experimental Details: combination Emax (second highest fraction inhibited in the dose matrix, 72 h); higher = more inhibition; extreme values may be limits of the assay

{"columns": ["Compound", "Experimental System", "combination Emax"],
 "data": [
  ["CN(CCO)CC[C@H](CSc1ccccc1)Nc1ccc(S(=O)(=O)NC(=O)c2ccc(N3CCC([C@@H](O)c4ccccc4-c4ccc(Cl)cc4)CC3)cc2)cc1S(=O)(=O)C(F)(F)F [AZD4320] + C=CCn1c(=O)c2cnc(Nc3ccc(N4CCN(C)CC4)cc3)nc2n1-c1cccc(C(C)(C)O)n1 [AZD1775] (first compound max 1 µM, partner max 1 µM)", "NCI-H2369 (Mesothelioma)", 0.189],
  ["Cc1c2c(nn1C)CSCc1cc(n(C)n1)CSc1cc(c3ccccc3c1)OCCCc1c(C(=O)O)n(C)c3c-2c(Cl)ccc13 [AZD5991] + CN(C)CCCOc1ccc(-c2ccc3ncc4c(c3c2)n(C2CCOCC2)c(=O)n4C)cn1 [AZD0156] (first compound max 1 µM, 7x7, partner max 1 µM)", "NCI-H2369 (Mesothelioma)", 0.208],
  ["CCc1c2c(nc3ccc(O)cc13)-c1cc3c(c(=O)n1C2)COC(=O)[C@]3(O)CC [SN-38] + CN(C)CCCOc1ccc(-c2ccc3ncc4c(c3c2)n(C2CCOCC2)c(=O)n4C)cn1 [AZD0156] (first compound max 0.3 µM, 7x7, partner max 1 µM)", "NCI-H2369 (Mesothelioma)", 0.32],
  ["Cc1cc2ncnn2cc1Nc1ncc2c(n1)n(C1CCOCC1)c(=O)n2C [AZD7648] + CN(C)CCCOc1ccc(-c2ccc3ncc4c(c3c2)n(C2CCOCC2)c(=O)n4C)cn1 [AZD0156] (first compound max 10 µM, 7x7, partner max 1 µM)", "NCI-H2369 (Mesothelioma)", 0.198],
  ["CN(C)CCCOc1ccc(-c2ccc3ncc4c(c3c2)n(C2CCOCC2)c(=O)n4C)cn1 [AZD0156] + C=CCn1c(=O)c2cnc(Nc3ccc(N4CCN(C)CC4)cc3)nc2n1-c1cccc(C(C)(C)O)n1 [AZD1775] (first compound max 1 µM, partner max 1 µM)", "NCI-H2369 (Mesothelioma)", 0.207],
  ["C=CCn1c(=O)c2cnc(Nc3ccc(N4CCN(C)CC4)cc3)nc2n1-c1cccc(C(C)(C)O)n1 [AZD1775] + C[C@@H]1COCCN1C2=NC(=NC(=C2)C3(CC3)[S@](=N)(=O)C)C4=C5C=CNC5=NC=C4 [AZD6738] (first compound max 1 µM, partner max 10 µM)", "NCI-H2369 (Mesothelioma)", 0.336],
  ["CN(CCO)CC[C@H](CSc1ccccc1)Nc1ccc(S(=O)(=O)NC(=O)c2ccc(N3CCC([C@@H](O)c4ccccc4-c4ccc(Cl)cc4)CC3)cc2)cc1S(=O)(=O)C(F)(F)F [AZD4320] + Cc1cc2ncnn2cc1Nc1ncc2c(n1)n(C1CCOCC1)c(=O)n2C [AZD7648] (first compound max 1 µM, 7x7, partner max 10 µM)", "NCI-H2369 (Mesothelioma)", 0.0705]
]}
